Items are presented alongside their recorded TGI.
# System: IGROV1 ovarian
# Assay summary: NCI tumour cell line growth inhibition, 48 h
Write down the numeric answer in µM and omit the unit.

Field: example entries. Status: answers known.
O=C(Nc1cc(C(F)(F)F)cc(C(F)(F)F)c1)Nc1ccc(OCc2nnc(-c3ccc(Cl)cc3)o2)c(F)c1 | 39.2
O=C(Nc1nc(-c2ccccc2)cs1)c1cc(O)c(O)c(O)c1 | 22.8
CC1CN=C(NS(=O)(=O)c2cc(C(=O)Nc3ccccc3)c(Cl)cc2S)NN1 (stereo unspecified) | 83.3
O=C(CSc1nc2ccc(I)cc2c(=O)n1Cc1ccccc1)NN1C(=O)CSC1c1ccccc1 (stereo unspecified) | 55.6
COc1ccc2cc(/C=N\NC(=O)Nc3ccc([N+](=O)[O-])cc3)ccc2c1 | 23.2

Q: Report measured TGI on IGROV1 ovarian; entry: Cc1ccc(S(=O)(=O)NNC(C[N+](=O)[O-])c2ccccc2)cc1 (stereo unspecified)
A: 26.7

Q: Report measured TGI on IGROV1 ovarian; entry: CSC(=NC#N)S/C=C/C(=O)c1cccc2ccccc12
A: 48.1

// data source = PubChem BioAssay (NCI)
